Target: UniProt P12337
Sequence (P12337 19-565): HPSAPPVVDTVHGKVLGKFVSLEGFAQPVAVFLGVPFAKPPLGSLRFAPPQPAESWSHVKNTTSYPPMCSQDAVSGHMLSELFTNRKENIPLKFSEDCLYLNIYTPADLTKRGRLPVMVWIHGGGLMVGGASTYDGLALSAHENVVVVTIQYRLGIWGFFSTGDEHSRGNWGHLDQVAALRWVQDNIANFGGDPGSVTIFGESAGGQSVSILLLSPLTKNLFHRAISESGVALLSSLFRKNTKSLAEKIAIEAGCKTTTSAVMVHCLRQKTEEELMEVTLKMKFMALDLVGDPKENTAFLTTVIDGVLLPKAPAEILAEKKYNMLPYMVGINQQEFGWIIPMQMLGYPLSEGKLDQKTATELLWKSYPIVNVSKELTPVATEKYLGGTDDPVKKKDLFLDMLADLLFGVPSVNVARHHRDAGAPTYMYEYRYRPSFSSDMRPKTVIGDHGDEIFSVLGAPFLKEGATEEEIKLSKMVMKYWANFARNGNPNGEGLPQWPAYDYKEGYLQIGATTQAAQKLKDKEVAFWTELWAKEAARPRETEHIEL
Test: biochemical
Format: biochemical
Conditions: o-NPA as substrate; Table 6; read-out: rCE Ki ± SE

COMPOUND: O=C(C(=O)c1ccc(CBr)cc1)c1ccccc1
UNITS_OF_MEASURE: µM
MEASUREMENT_QUALIFIER: =
Ki: 0.015
--
COMPOUND: O=C(C(=O)c1ccc(O)cc1)c1ccc(O)cc1 [Compound 35, 1,2-bis(4-hydroxyphenyl)ethane-1,2-dione]
UNITS_OF_MEASURE: µM
MEASUREMENT_QUALIFIER: >
Ki: 100
--
COMPOUND: O=C(C(=O)c1c(Cl)c(Cl)c(Cl)c(Cl)c1Cl)c1c(F)c(F)c(F)c(F)c1F
UNITS_OF_MEASURE: µM
MEASUREMENT_QUALIFIER: =
Ki: 0.823
--
COMPOUND: Cc1ccc(C(=O)C(=O)c2ccccc2)cc1[N+](=O)[O-]
UNITS_OF_MEASURE: µM
MEASUREMENT_QUALIFIER: =
Ki: 0.0119
--
COMPOUND: O=C(C(=O)c1ccc(Cl)cc1)c1ccccc1
UNITS_OF_MEASURE: µM
MEASUREMENT_QUALIFIER: =
Ki: 0.0239
--
COMPOUND: O=C(C(=O)c1ccc(O)cc1O)c1ccc(O)cc1O
UNITS_OF_MEASURE: µM
MEASUREMENT_QUALIFIER: >
Ki: 100
--
COMPOUND: CN(C)c1ccc(C(=O)C(=O)c2ccc(N(C)C)cc2)cc1
UNITS_OF_MEASURE: µM
MEASUREMENT_QUALIFIER: =
Ki: 2.4
--
COMPOUND: Cc1ccc(C(=O)C(=O)c2ccc(C)cc2)cc1
UNITS_OF_MEASURE: µM
MEASUREMENT_QUALIFIER: =
Ki: 0.0496
--
COMPOUND: Cc1ccc(C(=O)C(=O)c2ccccc2)cc1
UNITS_OF_MEASURE: µM
MEASUREMENT_QUALIFIER: =
Ki: 0.119
--
COMPOUND: Cc1ccc(C(=O)C(=O)c2ccccc2)cc1C
UNITS_OF_MEASURE: µM
MEASUREMENT_QUALIFIER: =
Ki: 0.108
--
COMPOUND: O=C(C(=O)c1ccc(Cl)cc1)c1ccc(Cl)cc1
UNITS_OF_MEASURE: µM
MEASUREMENT_QUALIFIER: =
Ki: 0.0141
--
COMPOUND: COc1ccc(C(=O)C(=O)c2ccccc2Cl)cc1OC
UNITS_OF_MEASURE: µM
MEASUREMENT_QUALIFIER: =
Ki: 0.036
--
COMPOUND: O=C(C(=O)c1ccc([N+](=O)[O-])cc1)c1ccccc1
UNITS_OF_MEASURE: µM
MEASUREMENT_QUALIFIER: =
Ki: 0.0217
--
COMPOUND: O=C(C(=O)c1cc(Br)ccc1O)c1cc(Br)ccc1O
UNITS_OF_MEASURE: µM
MEASUREMENT_QUALIFIER: =
Ki: 0.0535
--
COMPOUND: O=C(C(=O)c1ccc(C(=O)C(=O)c2ccccc2)cc1)c1ccccc1
UNITS_OF_MEASURE: µM
MEASUREMENT_QUALIFIER: =
Ki: 0.0061
--
COMPOUND: COc1ccc(C(=O)C(=O)c2ccc(OC)cc2)cc1
UNITS_OF_MEASURE: µM
MEASUREMENT_QUALIFIER: =
Ki: 0.58
